So I've got a bunch of substances here, and I need their KnockOut Efficiency (loss of binding of SR-1 compared to wild type cells) values.
tested on: CD117; assay: Gene editing of CD117 in TF-1 cells, loss of SR-1 binding by FACS; format: cell-based, human; details: FACS 7 days after electroporation with Cas9, crRNA/tracrRNA or sgRNA and HDR template
State just the number; it will be interpreted in %.

Value of measured KnockOut Efficiency (loss of binding of SR-1 compared to wild type cells) for the entry KIT_E73_4: crRNA TATTCTCATTCGTTTCATCC, SEQ ID NO: 6, targets E73 of CD117 (chemistry not given here) : 60.1

The value of KnockOut Efficiency (loss of binding of SR-1 compared to wild type cells) measured for the substance KIT_120_123_4: crRNA CTTGTTGACCGCTCCTTGTA, SEQ ID NO: 12, targets residues 120-123 of CD117 (chemistry not given here) turned out to be 60.0

# KnockOut Efficiency (loss of binding of SR-1 compared to wild type cells) of KIT_120_123_6: crRNA GCGGTCAACAAGGAAAAGCT, SEQ ID NO: 14, targets residues 120-123 of CD117 (chemistry not given here) = 60.6

Field KnockOut Efficiency (loss of binding of SR-1 compared to wild type cells) (entry KIT_E73_6: crRNA TAAGCAGAATGAATGGATCA, SEQ ID NO: 8, targets E73 of CD117 (chemistry not given here) ) reads 60.5

Where these numbers come from: patent US20250057951A1
